molecular target: Nuclear receptor subfamily 1 group I member 2 (Rattus norvegicus); assay: Rat pregnane X receptor (rPXR) activation by small molecules, qHTS assay (AID 1346983); settings: rPXR luciferase reporter cells, One-Glo luminescence, 24 h; active compounds read high; note: % is set by controls: 0 for no effect and ±100 for the full control effect; nearly all actives have a fitted effect of over 20% in size
Results filed as inconclusive are left out. Non-standard residues stand in square brackets, D forms with d. Residues, ends and D or L forms follow the SMILES beside them. Orn = NCCC[C@H](N)C(=O)O
endpointName: max activation (%)
Respond numerically; units are % and should not be typed.

Lookup: API: value(readout=max activation, system=Nuclear receptor subfamily 1 group I member 2 (Rattus norvegicus)) for record CCC1OC(=O)C[C@@H](O)[C@H](C)[C@@H](O[C@@H]2O[C@H](C)C[C@H](N(C)C)[C@H]2O)[C@@H](CC=O)C[C@@H](C)C(=O)/C=C/[C@]2(C)OC2C1C (some centres undefined)
Found: -4.15

Lookup: API: value(readout=max activation, system=Nuclear receptor subfamily 1 group I member 2 (Rattus norvegicus)) for record CC(C)(C)c1ccc2c(S(=O)(=O)O)c(C(C)(C)C)ccc2c1
Found: -3.68

Lookup: API: value(readout=max activation, system=Nuclear receptor subfamily 1 group I member 2 (Rattus norvegicus)) for record Cc1ccc(C(C)(C)c2ccc(C)cc2)cc1
Found: -4.5

Lookup: API: value(readout=max activation, system=Nuclear receptor subfamily 1 group I member 2 (Rattus norvegicus)) for record CC(C)C[C@@H]1NC(=O)[C@H](CCCN)NC(=O)[C@H](C(C)C)NC(=O)[C@@H]2CCCN2C(=O)[C@@H](Cc2ccccc2)NC(=O)[C@H](CC(C)C)NC(=O)[C@H](CCCN)NC(=O)[C@H](C(C)C)NC(=O)[C@@H]2CCCN2C(=O)[C@@H](Cc2ccccc2)NC1=O (cyclo(V[Orn]L[dF]PV[Orn]L[dF]P))
Found: -16.3
